Target: SIRT1 (Homo sapiens, UniProt Q96EB6)
Sequence (Q96EB6 1-747): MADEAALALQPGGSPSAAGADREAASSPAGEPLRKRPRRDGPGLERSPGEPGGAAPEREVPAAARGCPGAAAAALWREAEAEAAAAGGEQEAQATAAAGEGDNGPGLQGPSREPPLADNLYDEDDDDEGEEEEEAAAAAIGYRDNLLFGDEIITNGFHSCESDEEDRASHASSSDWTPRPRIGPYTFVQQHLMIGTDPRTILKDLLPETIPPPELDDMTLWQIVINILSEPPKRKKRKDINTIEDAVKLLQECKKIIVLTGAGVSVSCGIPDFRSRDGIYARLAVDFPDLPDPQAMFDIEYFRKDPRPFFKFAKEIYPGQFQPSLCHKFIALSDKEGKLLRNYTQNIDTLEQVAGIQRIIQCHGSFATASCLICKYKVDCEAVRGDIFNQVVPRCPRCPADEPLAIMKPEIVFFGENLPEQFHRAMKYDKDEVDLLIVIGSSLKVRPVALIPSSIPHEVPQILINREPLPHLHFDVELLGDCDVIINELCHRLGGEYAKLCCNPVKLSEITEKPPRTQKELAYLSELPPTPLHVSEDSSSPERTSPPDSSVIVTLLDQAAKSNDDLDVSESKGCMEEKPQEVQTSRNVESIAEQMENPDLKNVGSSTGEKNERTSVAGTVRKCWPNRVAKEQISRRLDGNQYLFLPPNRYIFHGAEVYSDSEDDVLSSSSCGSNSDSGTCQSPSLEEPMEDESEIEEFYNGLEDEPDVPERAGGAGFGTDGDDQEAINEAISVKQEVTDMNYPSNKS
Test: Trp mass spectrometry assay of SIRT1 activation
Type: biochemical
Settings: Trp peptide assay; EC1.5 = concentration that results in 150% activation of SIRT1

- SMILES_CODE: "Cc1cc(-c2ccc3c(n2)N(C(=O)Nc2cccc4nnc(C)cc24)[C@H]2CCN3C2)ccn1"
  TRP Activity (EC1.5): "B (B (EC1.5 1-25 μM))"
- SMILES_CODE: "Cc1cc(-c2ccc3c(n2)N(C(=O)Nc2ccncn2)[C@H]2CCCN3C2)ccn1"
  TRP Activity (EC1.5): "A (A (EC1.5<1 μM))"
- SMILES_CODE: "Cc1cc(-c2ccc3c(n2)N(C(=O)Nc2cnn(C)c2)[C@H]2CCCN3C2)ccn1"
  TRP Activity (EC1.5): "B (B (EC1.5 1-25 μM))"
- SMILES_CODE: "O=C(NC1CC1)c1ccc2c(n1)N(C(=O)Nc1ccccn1)[C@H]1CCN2C1"
  TRP Activity (EC1.5): "A (A (EC1.5<1 μM))"
- SMILES_CODE: "Cc1cc(-c2ccc3c(n2)N(C(=O)Nc2cccnn2)[C@H]2CCN3C2)ccn1"
  TRP Activity (EC1.5): "B (B (EC1.5 1-25 μM))"

* * *

Target: UniProtKB Q96EB6
Experiment: Trp mass spectrometry assay of SIRT1 activation
Type: biochemical
Conditions: Trp peptide assay; EC1.5 = concentration that results in 150% activation of SIRT1

- COMPOUND: "CCn1cc(-c2ccc3c(n2)N(C(=O)Nc2cnccn2)[C@H]2CCN3C2)cn1"
  TRP Activity (EC1.5): "B (B (EC1.5 1-25 μM))"
- COMPOUND: "Cn1nc(C(F)(F)F)cc1-c1ccc2c(n1)N(C(=O)Nc1cnccn1)[C@H]1CCN2C1"
  TRP Activity (EC1.5): "B (B (EC1.5 1-25 μM))"
- COMPOUND: "Cc1cc(-c2ccc3c(n2)N(C(=O)Nc2cn(C)nn2)[C@H]2CCN3C2)ccn1"
  TRP Activity (EC1.5): "B (B (EC1.5 1-25 μM))"
- COMPOUND: "CCc1cncc(NC(=O)N2c3nc(-c4ccnc(C)c4)ccc3N3CC[C@H]2C3)n1"
  TRP Activity (EC1.5): "A (A (EC1.5<1 μM))"
- COMPOUND: "O=C(Nc1cnccn1)N1c2nc(N3CCOC(C4CC4)C3)ccc2N2CC[C@H]1C2 (stereo partly drawn)"
  TRP Activity (EC1.5): "B (B (EC1.5 1-25 μM))"
- COMPOUND: "Cn1cc(-c2ccc3c(n2)N(C(=O)Nc2cnccn2)[C@H]2CCN3C2)cn1"
  TRP Activity (EC1.5): "B (B (EC1.5 1-25 μM))"
- COMPOUND: "COc1cc(-c2ccc3c(n2)N(C(=O)Nc2cnccn2)[C@H]2CCN3C2)cc(C)n1"
  TRP Activity (EC1.5): "A (A (EC1.5<1 μM))"
- COMPOUND: "O=C(Nc1cnccn1)N1c2nc(-c3ccnc(C4CC4)c3)ccc2N2CC[C@H]1C2"
  TRP Activity (EC1.5): "A (A (EC1.5<1 μM))"
- COMPOUND: "O=C(Nc1ccc(F)cn1)N1c2nc(N3CCC[C@H](C(F)(F)F)C3)ccc2N2CCC[C@H]1C2 [drawing 1177]"
  TRP Activity (EC1.5): "A (A (EC1.5<1 μM))"
- COMPOUND: "Cc1cc(-c2ccc3c(n2)N(C(=O)NCc2cccnc2)[C@H]2CCN3C2)ccn1"
  TRP Activity (EC1.5): "B (B (EC1.5 1-25 μM))"
- COMPOUND: "O=C(Nc1ccccn1)N1c2nc(N3CCC[C@@H]3C(F)(F)F)ccc2N2CC[C@H]1C2"
  TRP Activity (EC1.5): "A (A (EC1.5<1 μM))"
- COMPOUND: "Cc1ncc(-c2ccc3c(n2)N(C(=O)Nc2cnccn2)[C@H]2CCN3C2)cc1F"
  TRP Activity (EC1.5): "B (B (EC1.5 1-25 μM))"
- COMPOUND: "O=C(Nc1cncc(OC[C@H](O)CO)n1)N1c2nc(-c3cccc(C(F)(F)F)c3)ccc2N2CC[C@H]1C2"
  TRP Activity (EC1.5): "A (A (EC1.5<1 μM))"
- COMPOUND: "Cc1cncc(NC(=O)N2c3nc(-c4ccnc(C)c4)ccc3N3CC[C@H]2C3)c1"
  TRP Activity (EC1.5): "B (B (EC1.5 1-25 μM))"
- COMPOUND: "Cc1cc(-c2ccc3c(n2)N(C(=O)Nc2cccc4nccnc24)[C@H]2CCN3C2)ccn1"
  TRP Activity (EC1.5): "A (A (EC1.5<1 μM))"
- COMPOUND: "O=C(Nc1ccccn1)N1c2nc(N3CCC[C@H]3C(F)(F)F)ccc2N2CC[C@H]1C2"
  TRP Activity (EC1.5): "B (B (EC1.5 1-25 μM))"
- COMPOUND: "Cc1cncc(-c2ccc3c(n2)N(C(=O)Nc2cnccn2)[C@H]2CCN3C2)c1"
  TRP Activity (EC1.5): "B (B (EC1.5 1-25 μM))"
